- experimental.system: full length (mature) cynomolgus monkey TSLP, recombinant (cynomolgus monkey)
- method.summary: ELISA RBA, geometric mean

binder | unit.tag | IC50
DOM30h-440-57 (protein) VL: DIQMTQSPSSLSASVGDRVTITCRASRPIRNWLDWYQQKPGKAPELLIWGASHLQSGVPSRFSGSGSGTDFTLTISSLQPEDFATYYCMQIGDDPVTFGQGTKVEIKR | nM | 0.36
DOM30h-440-60 (protein) VL: DIQMTQSPSSLSASVGDRVTITCRASRPIRNWLDWYQQKPGKAPKLLIWGASHLQSGVPSRFSGSGSGTDFTLTISSLQPEDFATYYCIQFGEDPVTFGQGTKVEIKR | nM | 2.65
DOM30h-440-55 (protein) VL: DIQMTQSPSSLSASVGDRVTITCRASRPIRNWLDWYQQKPGKAPKLLIWGASHLQSGVPSRFSGSGSGTDFTLTISSLQPEDFATYYCVQIGEDPVTFGQGTKVEIKR | nM | 0.55
DOM30h-440-58 (protein) VL: DIQMTQSPSSLSASVGDRVTITCRASRPIRNWLDWYQQKPGKAPKLLIWGASHLQSGVPSRFSGSGSGTDFTLTISSLQPEDFATYYCLQIADDPVTFGQGTKVEIKR | nM | 0.21
DOM30h-440-64 (protein) VL: DIQMTQSPSSLSASVGDRVTITCRASRPIRNWLDWYQQKPGKAPKLLIWGASHLQSGVPSRFSGSGSGTDFTLTISSLQPEDFATYYCLQIGEDPVTFGQGTKVEIKR | nM | 0.87
DOM30h-440-56 (protein) VL: DIQMTQSPSSLSASVGDRVTITCRASRPIRNWLDWYQQKPGKAPKLLIWGASHLQSGVPSRFSGSGSGTDFTLTVSSLQPEDFATYYCMQIGEDPVTFGQGTKVEIKR | nM | 0.55
